The measurements presented in this section are drawn from ChEMBL document CHEMBL2062488.

- target.under.test: Serine/threonine-protein kinase PLK4 (Homo sapiens, UniProt O00444)
- Sequence (O00444 whole entry): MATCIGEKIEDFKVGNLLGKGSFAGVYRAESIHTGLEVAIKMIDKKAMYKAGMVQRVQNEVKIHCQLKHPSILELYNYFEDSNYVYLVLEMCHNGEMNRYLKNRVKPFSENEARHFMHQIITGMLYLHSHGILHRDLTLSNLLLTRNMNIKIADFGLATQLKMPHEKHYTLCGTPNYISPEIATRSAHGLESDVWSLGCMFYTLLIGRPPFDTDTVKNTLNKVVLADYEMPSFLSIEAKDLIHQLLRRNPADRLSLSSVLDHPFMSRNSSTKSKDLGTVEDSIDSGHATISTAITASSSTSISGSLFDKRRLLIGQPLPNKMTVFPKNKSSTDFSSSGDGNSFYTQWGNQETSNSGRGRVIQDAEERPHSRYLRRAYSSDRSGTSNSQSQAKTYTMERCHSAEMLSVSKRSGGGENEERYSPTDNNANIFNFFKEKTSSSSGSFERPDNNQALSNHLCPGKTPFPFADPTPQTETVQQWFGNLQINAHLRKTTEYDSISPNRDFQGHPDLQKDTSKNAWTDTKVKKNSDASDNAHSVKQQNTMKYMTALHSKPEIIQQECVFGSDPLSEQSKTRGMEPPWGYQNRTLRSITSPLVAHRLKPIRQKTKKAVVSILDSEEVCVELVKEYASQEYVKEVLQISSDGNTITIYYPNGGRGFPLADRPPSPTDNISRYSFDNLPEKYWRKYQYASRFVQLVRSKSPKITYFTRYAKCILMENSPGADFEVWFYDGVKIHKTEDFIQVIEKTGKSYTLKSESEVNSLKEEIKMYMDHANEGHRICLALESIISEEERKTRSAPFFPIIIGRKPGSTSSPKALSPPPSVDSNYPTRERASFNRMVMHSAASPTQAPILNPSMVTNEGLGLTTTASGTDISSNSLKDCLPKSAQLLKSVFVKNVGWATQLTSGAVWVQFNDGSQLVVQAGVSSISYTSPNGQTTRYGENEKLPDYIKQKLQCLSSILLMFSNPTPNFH
pIC50: −log10 of the molar value.
quantity.name: pIC50

Asked: Tell me pIC50 reported for Nc1ncnn2ccc(C(=O)Nc3ccc(NC(=O)Nc4cccc(F)c4)cc3)c12
Given back: > 8.52

====

- test: Oral bioavailability in mouse at 10 mg/kg
- Type: ADME, organism-based
- condition.set: in vivo
Below, each entry is listed with its recorded bioavailability.
Write down the value, and be sure its unit follows.

// worked examples, bioavailability included
>  <structure.notation>
Nc1noc2cccc(C(=O)Nc3cccc(CNC(=O)Nc4cccc(F)c4)c3)c12

>  <bioavailability>
28%

$$$$
>  <structure.notation>
Nc1noc2cccc(C(=O)Nc3cccc(CNC(=O)Nc4ccc(C(F)(F)F)cc4)c3)c12

>  <bioavailability>
77%

$$$$

With those in mind, consider the next molecule.
Asked: Fill in bioavailability for record Nc1noc2cccc(C(=O)Nc3cccc(CNC(=O)Nc4ccc(F)c(F)c4)c3)c12
Given back: 31%

====

- test: Clearance in mouse at 3 mg/kg, iv
- Format: ADME, organism-based
- Parameters: dose 3 mg/kg, route intravenous
- condition.set: in vivo
quantity.name: clearance (mL/min/kg)
Your answer is read as mL/min/kg, so omit the unit and give the number.

Worked examples, 2 compounds total:
>  <structure.notation>
Nc1noc2cccc(C(=O)Nc3cccc(CNC(=O)Nc4ccc(F)c(F)c4)c3)c12

>  <clearance, mL/min/kg>
6.5

$$$$
>  <structure.notation>
Nc1noc2cccc(C(=O)Nc3cccc(CNC(=O)Nc4cccc(F)c4)c3)c12

>  <clearance, mL/min/kg>
8.83

$$$$

We next turn to a different compound, shown below.
Asked: Consider the compound Nc1noc2cccc(C(=O)Nc3cccc(CNC(=O)Nc4ccc(C(F)(F)F)cc4)c3)c12 and give its recorded clearance.
Given back: 2.17

====

- target.under.test: Aurora kinase B (Homo sapiens, UniProt Q96GD4)
- Sequence (Q96GD4 whole entry): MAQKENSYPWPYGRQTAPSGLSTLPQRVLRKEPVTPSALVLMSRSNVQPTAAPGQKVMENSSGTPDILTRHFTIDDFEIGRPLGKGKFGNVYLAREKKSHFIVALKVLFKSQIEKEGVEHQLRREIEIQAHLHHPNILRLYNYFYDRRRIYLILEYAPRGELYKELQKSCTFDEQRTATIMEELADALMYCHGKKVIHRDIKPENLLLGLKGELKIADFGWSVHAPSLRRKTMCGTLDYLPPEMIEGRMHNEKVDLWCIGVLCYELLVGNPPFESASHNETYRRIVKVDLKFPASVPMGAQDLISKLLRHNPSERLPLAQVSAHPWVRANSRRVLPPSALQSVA
- test: Inhibition of Aurora B kinase by HTRF analysis in presence of 1 mM ATP
Could you please classify the records by IC50 using these ranges: lower level = under 40 nM, middle level = from 40 nM up to 100 nM, upper level = 100 nM and over

Asked: Form: Item = Cn1nc(N)c2c(C(=O)Nc3cccc(CNC(=O)Nc4ccc(C(F)(F)F)cc4)c3)cccc21 ; Class = ?
Given back: upper level

Asked: Kindly state the category for this compound: Nc1noc2cccc(C(=O)Nc3cccc(CNC(=O)Nc4ccccc4)c3)c12
Given back: lower level

Asked: Which class holds Nc1ncnn2ccc(C(=O)Nc3ccc(NC(=O)Nc4ccc(F)cc4)cc3)c12 ?
Given back: lower level

Asked: Exercise: read the entry Nc1noc2cccc(C(=O)Nc3cccc(CC(=O)Nc4cccc(F)c4)c3)c12 and state which class it falls under.
Given back: upper level

Asked: In plain terms, what class is Nc1ncnn2ccc(C(=O)Nc3ccc(NC(=O)Nc4cccc(F)c4)cc3)c12 ?
Given back: lower level

Asked: State the class of the compound shown: Nc1nsc2cccc(C(=O)Nc3cccc(CNC(=O)Nc4ccc(F)c(F)c4)c3)c12
Given back: lower level

Asked: # classify by IC50 band: Nc1noc2cccc(C(=O)Nc3ccc(NC(=O)Nc4ccc(F)cc4)cc3)c12
Given back: upper level

Asked: Which bin should I file Nc1noc2cccc(C(=O)Nc3cccc(CNC(=O)Nc4ccccc4F)c3)c12 under?
Given back: middle level

Asked: Which class is correct for the following compound? Nc1noc2cccc(C(=O)Nc3ccc(NC(=O)Nc4ccc(Cl)cc4)cc3)c12
Given back: upper level

Asked: Quick check: band for Nc1noc2cccc(C(=O)Nc3cccc(CNC(=O)Cc4cccc(F)c4)c3)c12
Given back: upper level

Asked: // bin(item) where item = Nc1noc2cccc(C(=O)Nc3cccc(CNC(=O)Nc4ccc(F)c(F)c4)c3)c12
Given back: lower level

Asked: Band for Nc1noc2cccc(C(=O)Nc3cccc(CNC(=O)Nc4cccc(F)c4)c3)c12 ?
Given back: middle level

====

Entries and their Ratio IC50
- Species on record: Homo sapiens
- test: Selectivity ratio of IC50 for Aurora A kinase to IC50 for Aurora B kinase

>  <structure.notation>
Nc1noc2cccc(C(=O)Nc3ccc(NC(=O)Nc4ccc(Cl)cc4)cc3)c12

>  <Ratio IC50>
> 89

$$$$
>  <structure.notation>
Nc1noc2cccc(C(=O)Nc3ccc(NC(=O)Nc4ccc(F)cc4)cc3)c12

>  <Ratio IC50>
> 26

$$$$

Asked: Please give measured Ratio IC50 of the following entry: Nc1noc2cccc(C(=O)Nc3cccc(CNC(=O)Nc4ccccc4F)c3)c12
Given back: > 227
